target: cysteines in MDA-MB-231 and Ramos cells (Homo sapiens, UniProt P24752); test: Competitive isoTOP-ABPP in situ (fragment-treated cells); type: cell-based; conditions: 200 μM, insitu, ramos
Sequence (P24752 34-427): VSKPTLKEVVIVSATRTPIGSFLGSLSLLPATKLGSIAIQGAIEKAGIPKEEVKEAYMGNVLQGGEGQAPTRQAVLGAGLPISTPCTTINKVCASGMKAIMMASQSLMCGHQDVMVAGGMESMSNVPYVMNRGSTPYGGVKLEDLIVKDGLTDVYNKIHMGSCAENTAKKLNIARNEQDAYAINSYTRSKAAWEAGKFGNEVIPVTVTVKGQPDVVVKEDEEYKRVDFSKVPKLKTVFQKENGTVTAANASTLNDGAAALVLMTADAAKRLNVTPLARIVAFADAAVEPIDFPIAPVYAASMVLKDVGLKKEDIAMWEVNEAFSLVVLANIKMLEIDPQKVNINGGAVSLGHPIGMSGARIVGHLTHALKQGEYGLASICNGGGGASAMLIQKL
measured_quantity: isoTOP-ABPP ratio P24752_C119

{"sample_smiles": "O=C(CCl)N1CCN(CC(=O)N2CCOCC2)CC1", "tested_on": "cysteines in MDA-MB-231 and Ramos cells (Homo sapiens, UniProt P24752)", "result": 1.2}
{"sample_smiles": "O=C(CCl)NCCc1c[nH]c2ccccc12", "tested_on": "cysteines in MDA-MB-231 and Ramos cells (Homo sapiens, UniProt P24752)", "result": 2.8}
{"sample_smiles": "O=C(CCl)N1CCN(S(=O)(=O)c2ccccc2F)CC1", "tested_on": "cysteines in MDA-MB-231 and Ramos cells (Homo sapiens, UniProt P24752)", "result": 1.5}
{"sample_smiles": "C=CC(=O)N(Cc1cccnc1)c1cc(C(F)(F)F)cc(C(F)(F)F)c1", "tested_on": "cysteines in MDA-MB-231 and Ramos cells (Homo sapiens, UniProt P24752)", "result": 0.7}

###

Target: MGMT C145 (P16455) (Homo sapiens, UniProt P16455)
Sequence (P16455 1-207): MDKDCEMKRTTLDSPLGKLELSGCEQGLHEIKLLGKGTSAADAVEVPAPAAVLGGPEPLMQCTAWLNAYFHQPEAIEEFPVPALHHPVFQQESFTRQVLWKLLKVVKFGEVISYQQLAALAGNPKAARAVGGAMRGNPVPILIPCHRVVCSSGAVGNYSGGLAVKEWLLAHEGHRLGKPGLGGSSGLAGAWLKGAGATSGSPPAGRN
Assay: Competitive isoTOP-ABPP, cell lysates
Assay type: binding
Conditions: 500 μm in-vitro ramos
Known isoTOP-ABPP ratio (reactivity profile), P16455_C145 of a selection of molecules
measured_quantity: isoTOP-ABPP ratio (reactivity profile), P16455_C145

{"molecule": "CC(C)CCOCCNC(=O)CCl [compound 27]", "result": 20.0}
{"molecule": "COc1ccccc1OCCNC(=O)CCl [compound 28]", "result": 20.0}
{"molecule": "CC(Br)C(=O)Nc1cc(C(F)(F)F)cc(C(F)(F)F)c1 (stereo not shown) [compound 24]", "result": 20.0}
{"molecule": "C=CC(=O)N(Cc1cccnc1)c1ccc(Oc2ccccc2)c(C(F)(F)F)c1 [compound 15]", "result": 1.3}
{"molecule": "O=C(CCl)N1CCN(CC(=O)N2CCOCC2)CC1 [compound 29]", "result": 20.0}
{"molecule": "O=C(CCl)N1CCC(C(O)(c2ccccc2)c2ccccc2)CC1 [compound 20]", "result": 20.0}
{"molecule": "N#C/C(=C\\c1cc(C(F)(F)F)cc(C(F)(F)F)c1)C(N)=O [compound 23]", "result": 1.0}

###

target: UniProtKB Q8TAQ2; test: Competitive isoTOP-ABPP, cell lysates; format: binding; settings: 500 μm, in-vitro_ramos_231
Sequence (Q8TAQ2 whole entry): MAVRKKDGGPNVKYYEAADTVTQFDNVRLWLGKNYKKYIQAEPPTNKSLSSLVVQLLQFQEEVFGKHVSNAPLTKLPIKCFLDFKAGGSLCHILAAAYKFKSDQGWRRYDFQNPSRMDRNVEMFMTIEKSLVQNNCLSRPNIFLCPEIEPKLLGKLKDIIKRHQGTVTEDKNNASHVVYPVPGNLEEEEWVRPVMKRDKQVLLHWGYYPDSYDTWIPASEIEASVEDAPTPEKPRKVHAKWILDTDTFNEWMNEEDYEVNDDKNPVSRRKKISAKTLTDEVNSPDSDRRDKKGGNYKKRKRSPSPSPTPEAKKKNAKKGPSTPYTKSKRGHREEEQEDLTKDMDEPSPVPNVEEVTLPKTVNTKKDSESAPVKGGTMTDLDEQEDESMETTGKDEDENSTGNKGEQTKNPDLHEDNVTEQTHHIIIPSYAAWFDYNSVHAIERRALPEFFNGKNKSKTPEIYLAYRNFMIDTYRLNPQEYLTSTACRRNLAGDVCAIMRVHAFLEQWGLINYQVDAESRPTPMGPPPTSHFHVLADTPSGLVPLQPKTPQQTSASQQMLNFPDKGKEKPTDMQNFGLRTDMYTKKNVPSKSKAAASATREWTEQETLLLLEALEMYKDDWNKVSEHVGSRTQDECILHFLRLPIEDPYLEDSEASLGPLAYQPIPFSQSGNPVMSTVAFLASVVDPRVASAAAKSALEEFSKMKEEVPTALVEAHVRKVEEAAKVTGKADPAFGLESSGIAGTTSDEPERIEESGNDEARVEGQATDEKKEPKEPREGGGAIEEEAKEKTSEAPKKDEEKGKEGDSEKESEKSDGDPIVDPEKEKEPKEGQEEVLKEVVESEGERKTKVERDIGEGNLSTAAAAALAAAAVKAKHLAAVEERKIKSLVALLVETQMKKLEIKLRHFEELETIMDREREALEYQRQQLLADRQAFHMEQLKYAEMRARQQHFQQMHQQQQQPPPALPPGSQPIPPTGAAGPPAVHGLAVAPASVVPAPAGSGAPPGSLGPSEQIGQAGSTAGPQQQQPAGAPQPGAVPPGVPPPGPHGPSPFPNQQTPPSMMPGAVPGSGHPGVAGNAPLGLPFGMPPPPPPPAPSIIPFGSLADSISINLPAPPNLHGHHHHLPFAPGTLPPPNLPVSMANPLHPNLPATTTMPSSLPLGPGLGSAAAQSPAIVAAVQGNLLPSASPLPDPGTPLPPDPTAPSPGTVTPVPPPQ
As shown below, each of these compounds has a reported isoTOP-ABPP reactivity profile ratio, Q8TAQ2_C145 value.
measured_quantity: isoTOP-ABPP reactivity profile ratio, Q8TAQ2_C145

{"compound": "COc1cc(NC(=O)CCl)cc(OC)c1", "tested_on": "UniProtKB Q8TAQ2", "result": 20.0}
{"compound": "O=C(CCl)Nc1ccc(-c2ccccc2)cc1", "tested_on": "UniProtKB Q8TAQ2", "result": 0.9}
{"compound": "C=CC(=O)N(c1ccccc1)C1CCCCC1", "tested_on": "UniProtKB Q8TAQ2", "result": 1.0}
{"compound": "O=C(CCl)N1CCc2cc(Br)ccc21", "tested_on": "UniProtKB Q8TAQ2", "result": 2.8}
{"compound": "O=C(CCl)NC1C(O)OC(CO)C(O)C1O (mixture of isomers)", "tested_on": "UniProtKB Q8TAQ2", "result": 1.0}
